meta.source: paper PMC7954794

Tested on: Abp1 (1xFLAG)
assay.overview: Western blot expression level of Abp1 SH3-swapped baits (Fig. S2A-B)
Assay type: cell-based, Saccharomyces cerevisiae
stated.conditions: Flag signal relative to Abp1 WT (Abp1-1 to Abp1-4 = 1); sheet FigS2A-B
Task for the reader: assign each of the following molecules its reported Ratio Swap/WT Flag.

molecule	Ratio Swap/WT Flag
Pex13 (protein, UniProt P80667 1-386, looked up) Peroxisomal membrane protein …: MSSTAVPRPKPWETSASLEEPQRNAQSLSAMMTSNQQDSRPTEESNNSNSASESAPEVLPRPAALNSSGTYGESNTIPGIYGNSNYGIPYDNNPYSMNSIYGNSIGRYGYGGSYYGNNYGSFYGGGYGAGAGYGMNNGSGLGESTKATFQLIESLIGAVTGFAQMLESTYMATHNSFFTMISVAEQFGNLKEMLGSFFGIFAIMKFLKKILYRATKGRLGIPPKNFAESEGSKNKLIEDFQKFNDSGTINSNEKATRRKISWKPLLFFLMAVFGFPYLLNKFITKLQTSGTIRASQGNGSEPIDPSKLEFARALYDFVPENPEMEVALKKGDLMAILSKKDPLGRDSDWWKVRTKNGNIGYIPYNYIEIIKRRKKIEHVDDETRTH	0.9802

Now examine the next entry.
Write down Ratio Swap/WT Flag measured for item Lsb1 (protein, UniProt P53281 2-241, looked up) LAS seventeen-binding protein …: SASLVNRSLKNIRNELEFLKESNVISGDIFELINSKLPEKWDGNQRSPQNADTEEYVEALYDFEAQQDGDLSLKTGDKIQVLEKISPDWYRGKSNNKIGIFPANYVKPAFTRSASPKSAEAASSSTVSRPSVPPPSYEPAASQYPSQQVSAPYAPPAGYMQAPPPQQQQAPLPYPPPFTNYYQQPQQQYAPPSQQAPVEAQPQQSSGASSAFKSFGSKLGNAAIFGAGSAIGSDIVNSIF 0.4741
